TEST NAME: recombinant UMI read abundance after kanamycin selection (control-corrected) (log10(CPM+1)); higher = more efficient recombination; extreme values may be limits of the assay; sequences stand for … in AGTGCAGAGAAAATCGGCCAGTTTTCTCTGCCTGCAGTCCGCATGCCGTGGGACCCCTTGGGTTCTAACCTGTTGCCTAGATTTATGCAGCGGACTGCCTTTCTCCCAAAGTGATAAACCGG…AGGTTGGTTTCACT; site = the 11-nt donor;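 also: IS621 bridge recombinase in Escherichia coli cells against a fixed T5 target plasmid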
Rule: recombinant UMI read abundance (log10) under 0.3 gives not fulfilled, otherwise fulfilled.

Please review the entries below; each comes with its answer.
TATACTGCATGGACCGGTTTTCCCGGTAATCCGTATTTGCT (site TATACTGCTAG) :: fulfilled
TAGTCTGCATGGACCGGTTTTCCCGGTAATCCGTATTTGAG (site TAGTCTGCTCT) :: fulfilled
CGCCGGGCATGGACCGGTTTTCCCGGTAATCCGTATTTGAC (site CGCCGGGCTGT) :: fulfilled
CTACTAACATGGACCGGTTTTCCCGGTAATCCGTATTTGGC (site CTACTAACTCC) :: fulfilled
CGATCGTCATGGACCGGTTTTCCCGGTAATCCGTATTTGTT (site CGATCGACTAA) :: not fulfilled
TCTAAAGCATGGACCGGTTTTCCCGGTAATCCGTATTTGAT (site CCTAAAGCTAT) :: not fulfilled
TGAAGAGCATGGACCGGTTTTCCCGGTAATCCGTATTTGCC (site TGAAGAGCTGG) :: fulfilled
CCTAGTACATGGACCGGTTTTCCCGGTAATCCGTATTTGGC (site CCTAGTACTGC) :: not fulfilled

Is recombinant UMI read abundance (log10) for TTTGCCTCATGGACCGGTTTTCCCGGTAATCCGTATTTGCC (site TTTGCCTCTGG) at or above 0.3?
fulfilled

----------
TEST NAME: recombinant UMI read abundance after kanamycin selection (control-corrected) (log10(CPM+1)); higher = more efficient recombination; extreme values may be limits of the assay; sequences stand for … in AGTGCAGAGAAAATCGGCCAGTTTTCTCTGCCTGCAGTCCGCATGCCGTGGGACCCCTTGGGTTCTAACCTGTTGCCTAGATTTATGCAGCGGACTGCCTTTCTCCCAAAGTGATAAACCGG…AGGTTGGTTTCACT; site = the 11-nt donor
Please respond with reported recombinant UMI read abundance (log10) for every item in the list.
Give bare numbers.

Worked examples follow.
GAATGGCCATGGACCGGTTTTCCCGGTAATCCGTATTTGTA (site GAATGGCCTTC) :: 0.0097
ATAAGGTCATGGACCGGTTTTCCCGGTAATCCGTATTTGCA (site ATAAGGTCTTG) :: 2.96
ACTACACCATGGACCGGTTTTCCCGGTAATCCGTATTTGCC (site ACTACACCTGG) :: 0
TCAGAGGCATGGACCGGTTTTCCCGGTAATCCGTATTTGCG (site TCAGAGACTCG) :: 0.431
CTCCCTACATGGACCGGTTTTCCCGGTAATCCGTATTTGCG (site CTCCCTACTCA) :: 0.397

Working through the 2 sequences below one at a time, give recombinant UMI read abundance (log10) for each.
1. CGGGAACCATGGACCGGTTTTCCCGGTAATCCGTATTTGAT (site CGGGATCCTAT)
2. ATAGGAGCATGGACCGGTTTTCCCGGTAATCCGTATTTGGC (site ATAGGAGCTGC)

0
2.91

Parameters: items (list). Returns: recombinant UMI read abundance (log10) for each item.
1. GGCCGCCCATGGACCGGTTTTCCCGGTAATCCGTATTTGTT (site GGCCACCCTAA)
2. CCTAATACATGGACCGGTTTTCCCGGTAATCCGTATTTGGC (site CCTAATACTAC)

1: 0.0225; 2: 0.0181

----------
TEST NAME: recombinant UMI read abundance after kanamycin selection (control-corrected) (log10(CPM+1)); higher = more efficient recombination; extreme values may be limits of the assay; sequences stand for … in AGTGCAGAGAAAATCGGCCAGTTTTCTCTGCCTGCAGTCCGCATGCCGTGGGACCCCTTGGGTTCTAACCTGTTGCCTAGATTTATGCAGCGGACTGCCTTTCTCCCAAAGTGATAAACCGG…AGGTTGGTTTCACT; site = the 11-nt donor
Tick fulfilled if recombinant UMI read abundance (log10) is 1 or greater. Tick not fulfilled if recombinant UMI read abundance (log10) is less than 1.

Answered examples (7):
AGTACACCATGGACCGGTTTTCCCGGTAATCCGTATTTGAC (site CGTACACCTGT) :: not fulfilled
CAAGTCACATGGACCGGTTTTCCCGGTAATCCGTATTTGGT (site CAAGTCACTAC) :: fulfilled
TATTTAGCATGGACCGGTTTTCCCGGTAATCCGTATTTGTG (site TATTTTGCTCA) :: not fulfilled
CGAATTACATGGACCGGTTTTCCCGGTAATCCGTATTTGGC (site CGAATTACTGC) :: fulfilled
CCTAGCACATGGACCGGTTTTCCCGGTAATCCGTATTTGGT (site CCTAGCACTAC) :: not fulfilled
TCCCCTACATGGACCGGTTTTCCCGGTAATCCGTATTTGCC (site TCCCCTACTGG) :: not fulfilled
CTCTTCACATGGACCGGTTTTCCCGGTAATCCGTATTTGCT (site CTCTACACTAG) :: fulfilled

// inclusive: recombinant UMI read abundance (log10) at least 1? input: CAATTCTCATGGACCGGTTTTCCCGGTAATCCGTATTTGAA (site CAATTCTCTTT)
fulfilled

----------
TEST NAME: recombinant UMI read abundance after kanamycin selection (control-corrected) (log10(CPM+1)); higher = more efficient recombination; extreme values may be limits of the assay; sequences stand for … in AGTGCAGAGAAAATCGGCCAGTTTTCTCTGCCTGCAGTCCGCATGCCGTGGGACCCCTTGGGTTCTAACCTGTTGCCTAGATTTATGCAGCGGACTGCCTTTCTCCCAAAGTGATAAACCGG…AGGTTGGTTTCACT; site = the 11-nt donor
Hi there, I'd appreciate the recorded recombinant UMI read abundance (log10) for every entry that follows.
Numbers only.

TGAGGACCATGGACCGGTTTTCCCGGTAATCCGTATTTGGG (site TGAGGACCTCC) :: 0.0291

For each of the items listed, what is its recombinant UMI read abundance (log10)?
1. ATTGAGACATGGACCGGTTTTCCCGGTAATCCGTATTTGGT (site ATTGTGACTAC)
2. GCTACCCCATGGACCGGTTTTCCCGGTAATCCGTATTTGGA (site GCTACCCCTTC)
3. CTACGAACATGGACCGGTTTTCCCGGTAATCCGTATTTGGA (site CTACTAACTTC)

1: 0.471; 2: 0.0342; 3: 0.113

----------
TEST NAME: recombinant UMI read abundance after kanamycin selection (control-corrected) (log10(CPM+1)); higher = more efficient recombination; extreme values may be limits of the assay; sequences stand for … in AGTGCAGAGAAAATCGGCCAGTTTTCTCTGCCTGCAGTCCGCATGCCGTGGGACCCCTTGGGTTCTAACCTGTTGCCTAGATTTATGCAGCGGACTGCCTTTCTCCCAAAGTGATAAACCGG…AGGTTGGTTTCACT; site = the 11-nt donor
Lab note: compare recombinant UMI read abundance (log10) against 2. Equal or greater, write Criterion met. Smaller, write Criterion not met.

Below, 5 sequences whose answers are already recorded.
TTGCCGTCATGGACCGGTTTTCCCGGTAATCCGTATTTGGC (site TTGCCGTCTGC) :: Criterion not met
TCCAATTCATGGACCGGTTTTCCCGGTAATCCGTATTTGAC (site TCCAATTCTGT) :: Criterion not met
CCCGCTCCATGGACCGGTTTTCCCGGTAATCCGTATTTGCA (site CCCGCTCCTTG) :: Criterion not met
TCAGGTGCATGGACCGGTTTTCCCGGTAATCCGTATTTGAT (site GCAGGTGCTAT) :: Criterion not met
GATTGGACATGGACCGGTTTTCCCGGTAATCCGTATTTGAT (site GATTGGACTGT) :: Criterion not met

Given the entry CAAGCGCCATGGACCGGTTTTCCCGGTAATCCGTATTTGTA (site CAAGCGCCTAA) , answer whether its recombinant UMI read abundance (log10) meets or surpasses 2.
Criterion not met

Next entry: GCTACAGCATGGACCGGTTTTCCCGGTAATCCGTATTTGCC (site GCTACTGCTGG)
Criterion not met

Same for TCAGAGACATGGACCGGTTTTCCCGGTAATCCGTATTTGCG (site TCAGAGTCTCG)
Criterion not met

Could you do the same for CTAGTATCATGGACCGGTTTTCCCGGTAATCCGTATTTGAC (site CTAGTAGCTGT) , please?
Criterion not met

Request: ATATGACCATGGACCGGTTTTCCCGGTAATCCGTATTTGAC (site ATATGACCTGT)
Criterion not met

Follow-up item: CAAGCCCCATGGACCGGTTTTCCCGGTAATCCGTATTTGTG (site CAAGCGCCTCA)
Criterion not met

Similarly, CGATCGACATGGACCGGTTTTCCCGGTAATCCGTATTTGCT (site CGATCGACTAT) ?
Criterion not met

Item: GTATTAACATGGACCGGTTTTCCCGGTAATCCGTATTTGCA (site GTATTAACTTG)
Criterion met

Also ATAAGGCCATGGACCGGTTTTCCCGGTAATCCGTATTTGTC (site ATAAGGCCTGG) , if possible.
Criterion met

Item: CCAGCTGCATGGACCGGTTTTCCCGGTAATCCGTATTTGAT (site CCAGCTGCTAT)
Criterion not met

# iterate: GTAGTTACATGGACCGGTTTTCCCGGTAATCCGTATTTGAC (site GTAGTTACTGT)
Criterion met
